Where do these numbers come from? They come from PubChem BioAssay (NCATS).

Test system: C2A
Experiment: qHTS profiling for inhibitors of Plasmodium falciparum proliferation (AID 504749); also: nearly all actives have a fitted effect of over 60% in size
Settings: P. falciparum in erythrocytes, SYBR Green DNA, 72 h; series mostly up to 28.7 µM
Results filed as inconclusive are left out. The source made the active and inactive calls. Calls follow the shape of the dose curve; as a rule, active = well fitted inhibition curve with a large enough effect; inconclusive = small, poorly fitted or top-dose-only effect; inactive = flat fitted curve, though single readings scatter.
Outcome codes: active, inactive

1) CS(=O)(=O)OCC(O)C(O)COS(C)(=O)=O (configuration not stated) ... inactive
2) NC(=S)N=Nc1ccc(NN=C(N)N)cc1 ... active
3) FC(F)(F)COCC(F)(F)F ... inactive
4) O=C(O)[C@H]1C(=CCO)O[C@H]2CC(=O)N12 ... inactive
5) CC(C)Cc1ccc([C@@H](C)C(=O)NS(C)(=O)=O)cc1 ... inactive
6) COc1cc(S(C)=O)ccc1-c1nc2ncccc2[nH]1 (configuration not stated) ... inactive
7) CC(C)(COP(=O)(O)OP(=O)(O)OC[C@H]1O[C@@H](n2cnc3c(N)ncnc32)[C@H](O)[C@@H]1OP(=O)(O)O)C(O)C(=O)NCCC(=O)NCCS (some centres not stated) ... inactive
8) O=C(O)Cc1cc(I)c(Oc2ccc(O)c(I)c2)c(I)c1 ... inactive
9) CO/N=C(\C(=O)N[C@@H]1C(=O)N2C(C(=O)[O-])=C(C[n+]3cccc4c3CCC4)CS[C@H]12)c1csc(N)n1 ... inactive
10) O=S(=O)(O)CCCS(=O)(=O)O ... inactive
11) O=c1[nH]c(=O)n([C@H]2C[C@H](O)[C@@H](CO)O2)cc1/C=C/Br ... inactive
12) O=C(O)c1ccc(OCCn2ccnc2)cc1 ... inactive
13) O=C1N=C2SCCN2C(=O)C1Cc1ccc(Cl)cc1 (configuration not stated) ... inactive
14) CC(=O)N=c1sc(S(N)(=O)=O)nn1C ... inactive
15) OC[C@H]1O[C@@](CO)(O[C@H]2O[C@H](CO)[C@@H](O)[C@H](O)[C@H]2O)[C@@H](O)[C@@H]1O ... inactive
16) NCC(O)CC(=O)O (configuration not stated) ... inactive
17) C/C=C/C=C/C(=O)O ... inactive
18) CC(C)(C)CC(C)(C)c1cc(Cc2cc(C(C)(C)CC(C)(C)C)cc(-n3nc4ccccc4n3)c2O)c(O)c(-n2nc3ccccc3n2)c1 ... inactive
19) CCN(CC)CCC(=O)N1c2ccccc2Sc2ccc(C(F)(F)F)cc21 ... inactive
20) C=CC[C@@H]1/C=C(\C)C[C@H](C)C[C@H](OC)[C@H]2O[C@@](O)(C(=O)C(=O)N3CCCC[C@H]3C(=O)O[C@H](/C(C)=C/[C@@H]3CC[C@@H](O)[C@H](OC)C3)[C@H](C)[C@@H](O)CC1=O)[C@H](C)C[C@@H]2OC ... active
21) CC/C=C\C/C=C\C/C=C\C/C=C\C/C=C\C/C=C\CCC(=O)O ... inactive
22) N=C(N)c1ccc(/C=C/c2ccc(C(=N)N)cc2O)cc1 ... active
